# System: A-375
# assayName: Phototoxicity against human A375 cells preincubated for 5 mins followed by compound washout and subsequent UV irradiation at 1.5 J/cm2 for 5 mins measured after 72 hrs by MTT assay
# Assay type: functional, cell-based
# statedConditions: A-375, light or radiation study
measureName: pEC50
// returns pEC50 (minus log10 of molar concentration), number only

Worked cases, answers included:
structuresmiles=COc1ccccc1-c1ccc2c(C)nc3oc(-c4cc(OC)c(OC)c(OC)c4)nc3c2n1 measuredresult=6.12
structuresmiles=COc1ccc(-c2ccc3c(C)nc4c(nnn4-c4ccccc4)c3n2)cc1 measuredresult=5.00
structuresmiles=Cc1nc2oc(-c3ccccc3)nc2c2[nH]c(=O)ccc12 measuredresult=5.83

Input line: Name the reported pEC50 value associated with the compound "COc1ccccc1-c1ccc2c(C)nc3oc(-c4ccccc4)nc3c2n1"
Output line: 6.20

Input line: Name the reported pEC50 value associated with the compound "COc1ccc(-c2ccc3c(C)nc4c(nnn4-c4ccc(OC)cc4)c3n2)cc1"
Output line: 6.06

Input line: Name the reported pEC50 value associated with the compound "COc1ccc(-c2nc3c(nc(C)c4ccc(-c5ccccc5)nc43)o2)cc1"
Output line: 7.96

Input line: Name the reported pEC50 value associated with the compound "COc1cc(-c2nc3c(nc(C)c4ccc(-c5ccccc5)nc43)o2)cc(OC)c1OC"
Output line: 5.84

Input line: Name the reported pEC50 value associated with the compound "COc1ccc(-n2nnc3c4nc(-c5ccccc5OC)ccc4c(C)nc32)cc1"
Output line: 5.96

Values compiled from ChEMBL document CHEMBL4325899.
